Values compiled from ChEMBL document CHEMBL3102763.

Listed next: entries and their corresponding remaining at 1 h.
test system: CES1b/CES1c/CES2; assay: Metabolic stability assessed as human CES1b/CES1c/CES2-mediated hydrolysis measuring compound remaining after 60 mins by radio-HPLC analysis; assay type: ADME; conditions: human carboxylesterases CES1b, CES1c and CES2, read-out: Stability
measurement_name: remaining at 1 h (%)

[
  {
    "compound_smiles": "COC(=O)[C@H]1[C@@H](c2ccc(I)cc2)C[C@@H]2CC[C@H]1N2C/C=C/I",
    "measurement_name": "remaining at 1 h",
    "value": 92
  },
  {
    "compound_smiles": "O=C(OCC[18F])[C@H]1[C@@H](c2ccc(I)cc2)C[C@@H]2CC[C@H]1N2C/C=C/I",
    "measurement_name": "remaining at 1 h",
    "value": 92
  }
]

---

target: Sodium-dependent dopamine transporter (Homo sapiens, UniProt Q01959); test: Binding affinity to DAT (unknown origin)
Sequence (Q01959 whole entry): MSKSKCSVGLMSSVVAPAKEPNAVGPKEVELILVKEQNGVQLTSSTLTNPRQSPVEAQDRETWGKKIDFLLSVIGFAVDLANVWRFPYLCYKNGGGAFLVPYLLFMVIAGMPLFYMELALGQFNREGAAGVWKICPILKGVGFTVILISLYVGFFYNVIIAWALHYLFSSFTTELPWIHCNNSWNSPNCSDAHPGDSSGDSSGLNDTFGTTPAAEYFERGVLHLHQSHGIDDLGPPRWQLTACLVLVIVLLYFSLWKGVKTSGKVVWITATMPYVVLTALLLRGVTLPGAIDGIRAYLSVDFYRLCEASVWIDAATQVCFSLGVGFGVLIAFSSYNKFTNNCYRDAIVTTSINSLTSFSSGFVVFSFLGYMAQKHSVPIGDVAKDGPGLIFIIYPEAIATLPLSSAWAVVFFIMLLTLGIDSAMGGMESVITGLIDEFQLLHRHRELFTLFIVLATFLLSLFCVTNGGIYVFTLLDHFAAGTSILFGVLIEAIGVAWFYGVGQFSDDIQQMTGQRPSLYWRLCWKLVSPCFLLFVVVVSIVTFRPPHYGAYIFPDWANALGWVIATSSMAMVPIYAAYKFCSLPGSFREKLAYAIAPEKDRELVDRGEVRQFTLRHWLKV

[
  {
    "compound_smiles": "COC(=O)[C@H]1[C@@H](c2ccc(I)cc2)C[C@@H]2CC[C@H]1N2C",
    "Ki, nM": 6.34
  }
]

---

Reported Ki values for the following compounds.
biological target: Sodium-dependent noradrenaline transporter (Homo sapiens, UniProt P23975); assay: Displacement of [3H][…] from human NET after 2 hrs by liquid scintillation counting analysis
Sequence (P23975 whole entry): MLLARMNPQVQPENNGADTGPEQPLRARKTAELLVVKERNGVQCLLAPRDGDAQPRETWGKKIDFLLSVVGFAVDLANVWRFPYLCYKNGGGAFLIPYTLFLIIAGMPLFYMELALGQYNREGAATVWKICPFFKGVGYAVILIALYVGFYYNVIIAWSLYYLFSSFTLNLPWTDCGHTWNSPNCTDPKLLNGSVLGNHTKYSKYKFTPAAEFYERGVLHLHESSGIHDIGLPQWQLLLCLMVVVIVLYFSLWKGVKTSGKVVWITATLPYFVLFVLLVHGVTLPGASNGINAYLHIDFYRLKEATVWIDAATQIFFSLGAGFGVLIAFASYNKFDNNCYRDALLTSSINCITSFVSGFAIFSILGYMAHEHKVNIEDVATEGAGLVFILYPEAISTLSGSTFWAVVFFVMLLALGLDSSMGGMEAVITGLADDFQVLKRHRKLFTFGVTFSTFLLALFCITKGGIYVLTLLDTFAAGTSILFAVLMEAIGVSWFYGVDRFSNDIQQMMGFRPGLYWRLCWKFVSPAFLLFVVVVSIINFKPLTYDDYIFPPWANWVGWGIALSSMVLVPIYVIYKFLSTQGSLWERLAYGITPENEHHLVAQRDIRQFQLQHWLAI
measurement_name: Ki

[
  {
    "compound_smiles": "O=C(OCCF)[C@H]1[C@@H](c2ccc(I)cc2)C[C@@H]2CC[C@H]1N2C/C=C/I",
    "measurement_name": "Ki",
    "value": "153 nM"
  },
  {
    "compound_smiles": "COC(=O)[C@H]1[C@@H](c2ccc(I)cc2)C[C@@H]2CC[C@H]1N2C/C=C/I",
    "measurement_name": "Ki",
    "value": "20 nM"
  },
  {
    "compound_smiles": "O=C(O)[C@H]1[C@@H](c2ccc(I)cc2)C[C@@H]2CC[C@H]1N2C/C=C/I",
    "measurement_name": "Ki",
    "value": "785 nM"
  }
]

---

The following compounds are listed with their measured Ki values.
target: Sodium-dependent noradrenaline transporter (Homo sapiens); test: Binding affinity to NET (unknown origin)
measurement_name: Ki (nM)

[
  {
    "compound_smiles": "COC(=O)[C@H]1[C@@H](c2ccc(C)cc2)C[C@@H]2CC[C@H]1N2C/C=C/I",
    "measurement_name": "Ki",
    "unit_symbol": "nM",
    "relation_symbol": ">",
    "value": 1000
  },
  {
    "compound_smiles": "COC(=O)[C@H]1[C@@H](c2ccc(I)cc2)C[C@@H]2CC[C@H]1N2C",
    "measurement_name": "Ki",
    "unit_symbol": "nM",
    "relation_symbol": "=",
    "value": 32.8
  }
]

---

experiment: Drug metabolism in human liver microsomes after 1 hr by radio-HPLC analysis relative to control; format: ADME; details: read-out: Drug metabolism
measurement_name: metabolised at 1 h (%)

[
  {
    "compound_smiles": "O=C(OCC[18F])[C@H]1[C@@H](c2ccc(I)cc2)C[C@@H]2CC[C@H]1N2C/C=C/I",
    "measurement_name": "metabolised at 1 h",
    "unit_symbol": "%",
    "value": 71.6
  },
  {
    "compound_smiles": "COC(=O)[C@H]1[C@@H](c2ccc(I)cc2)C[C@@H]2CC[C@H]1N2C/C=C/I",
    "measurement_name": "metabolised at 1 h",
    "unit_symbol": "%",
    "value": 46.4
  }
]

---

target: Sodium-dependent serotonin transporter (Homo sapiens, UniProt P31645); test: Displacement of [3H][…] from human SERT after 2 hrs by liquid scintillation counting analysis
Sequence (P31645 whole entry): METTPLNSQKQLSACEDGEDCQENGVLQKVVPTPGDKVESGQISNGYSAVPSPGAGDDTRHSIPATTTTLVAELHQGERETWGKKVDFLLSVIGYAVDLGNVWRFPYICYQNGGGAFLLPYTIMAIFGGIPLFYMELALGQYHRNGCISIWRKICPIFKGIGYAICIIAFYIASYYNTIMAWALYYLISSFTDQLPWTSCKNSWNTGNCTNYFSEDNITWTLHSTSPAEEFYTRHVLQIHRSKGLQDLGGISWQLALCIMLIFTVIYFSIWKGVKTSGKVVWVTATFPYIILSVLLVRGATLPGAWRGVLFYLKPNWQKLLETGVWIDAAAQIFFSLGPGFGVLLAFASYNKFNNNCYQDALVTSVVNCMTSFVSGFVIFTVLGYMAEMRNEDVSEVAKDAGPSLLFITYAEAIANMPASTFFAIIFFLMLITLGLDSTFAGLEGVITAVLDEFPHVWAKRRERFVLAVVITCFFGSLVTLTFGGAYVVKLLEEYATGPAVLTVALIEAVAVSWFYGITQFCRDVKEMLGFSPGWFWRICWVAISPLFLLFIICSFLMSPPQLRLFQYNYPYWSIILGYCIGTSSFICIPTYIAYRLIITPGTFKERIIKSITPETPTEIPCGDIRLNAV
pKi: −log10 of the molar value.
Overview of reported pKi across a group of compounds:

[
  {
    "compound_smiles": "O=C(OCCF)[C@H]1[C@@H](c2ccc(I)cc2)C[C@@H]2CC[C@H]1N2C/C=C/I",
    "pKi": 8.62
  },
  {
    "compound_smiles": "COC(=O)[C@H]1[C@@H](c2ccc(I)cc2)C[C@@H]2CC[C@H]1N2C/C=C/I",
    "pKi": 8.82
  },
  {
    "compound_smiles": "O=C(O)[C@H]1[C@@H](c2ccc(I)cc2)C[C@@H]2CC[C@H]1N2C/C=C/I",
    "pKi": 7.15
  }
]

---

target: Sodium-dependent dopamine transporter (Homo sapiens, UniProt Q01959); test: Displacement of [3H]WIN35428 from human DAT after 2 hrs by liquid scintillation counting analysis
pKi: −log10 of the molar value.

[
  {
    "compound_smiles": "COC(=O)[C@H]1[C@@H](c2ccc(I)cc2)C[C@@H]2CC[C@H]1N2C/C=C/I",
    "pKi": 8.76
  },
  {
    "compound_smiles": "O=C(O)[C@H]1[C@@H](c2ccc(I)cc2)C[C@@H]2CC[C@H]1N2C/C=C/I",
    "pKi": 7.43
  },
  {
    "compound_smiles": "O=C(OCCF)[C@H]1[C@@H](c2ccc(I)cc2)C[C@@H]2CC[C@H]1N2C/C=C/I",
    "pKi": 8.88
  }
]
